B1: scFv; the commonest letter at each place (parent)
chain 1: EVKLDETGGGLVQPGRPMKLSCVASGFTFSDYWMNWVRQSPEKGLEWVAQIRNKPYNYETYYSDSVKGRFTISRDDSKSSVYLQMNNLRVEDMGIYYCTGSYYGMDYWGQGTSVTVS
chain 2: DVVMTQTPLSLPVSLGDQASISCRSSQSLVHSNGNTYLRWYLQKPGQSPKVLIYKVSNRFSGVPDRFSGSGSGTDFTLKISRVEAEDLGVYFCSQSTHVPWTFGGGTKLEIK

Variants of: B1
assay_protocol: Kd (Tite-Seq)
study_conditions: with fluorescein; format: scFv 4-4-20, heavy + light
pKd: −log10 of the molar value.
test_readout: pKd

[[record]]
sequence_variant = "chain 1 Y102N M105C"
result = "≤ 5.00"

[[record]]
sequence_variant = "chain 1 F29K S30A W36A"
result = 7.12

[[record]]
sequence_variant = "chain 1 S30C W33Y"
result = "≤ 5.00"

[[record]]
sequence_variant = "chain 1 S30K"
result = 8.91

[[record]]
sequence_variant = "chain 1 G104R M105C"
result = "≤ 5.00"

[[record]]
sequence_variant = "chain 1 G100V G104D"
result = "≤ 5.00"

[[record]]
sequence_variant = "chain 1 M105L G109C"
result = "≤ 5.00"

[[record]]
sequence_variant = "chain 1 F29C W33Q"
result = "≤ 5.00"

[[record]]
sequence_variant = "chain 1 W108K G109L"
result = "≤ 5.00"

[[record]]
sequence_variant = "chain 1 M34N W36E"
result = "≤ 5.00"

[[record]]
sequence_variant = "chain 1 G100M G109M"
result = "≤ 5.00"

[[record]]
sequence_variant = "chain 1 W33C"
result = "≤ 5.00"

[[record]]
sequence_variant = "chain 1 W33C N35W"
result = 5.27

[[record]]
sequence_variant = "chain 1 Y102K M105Y"
result = 7.90

[[record]]
sequence_variant = "chain 1 Y32D M34Y"
result = "≤ 5.00"

[[record]]
sequence_variant = "chain 1 Y102L G109M"
result = "≤ 5.00"

[[record]]
sequence_variant = "chain 1 G100V Y107M"
result = "≤ 5.00"

[[record]]
sequence_variant = "chain 1 S101H"
result = "≤ 5.00"

[[record]]
sequence_variant = "chain 1 D106C"
result = 5.66

[[record]]
sequence_variant = "chain 1 W33V V37S"
result = "≤ 5.00"

[[record]]
sequence_variant = "chain 1 S101M Y103A"
result = "≤ 5.00"

[[record]]
sequence_variant = "chain 1 M105I W108V"
result = 9.14

[[record]]
sequence_variant = "chain 1 Y107E W108K"
result = "≤ 5.00"

[[record]]
sequence_variant = "chain 1 Y102D Y103L G109P"
result = "≤ 5.00"

[[record]]
sequence_variant = "chain 1 S30V M34S"
result = "≤ 5.00"

[[record]]
sequence_variant = "chain 1 S30C"
result = 8.89

[[record]]
sequence_variant = "chain 1 G100F"
result = "≤ 5.00"

[[record]]
sequence_variant = "chain 1 D31V W36G"
result = "≤ 5.00"

[[record]]
sequence_variant = "chain 1 Y102S Y103S"
result = 7.68

[[record]]
sequence_variant = "chain 1 D31K"
result = 8.81

[[record]]
sequence_variant = "chain 1 F29C N35K"
result = "≤ 5.00"

[[record]]
sequence_variant = "chain 1 Y103M G104M M105L"
result = "≤ 5.00"

[[record]]
sequence_variant = "chain 1 F29E N35I"
result = 8.17

